Reference for the values: ChEMBL document CHEMBL3272151

experiment: Binding affinity to chymotrypsin (unknown origin); conditions: Homo sapiens
MEASUREMENT_TYPE: log(1/Km)
Just the number.

Sample answers from the record:
[
  {
    "MOLECULE": "O=C(CNC(=O)c1ccccc1)OCc1ccncc1",
    "log(1/Km)": 4.04
  },
  {
    "MOLECULE": "COC(=O)[C@@H](Cc1ccccc1)NC=O",
    "log(1/Km)": 3.6
  },
  {
    "MOLECULE": "CS(=O)(=O)N[C@@H](Cc1ccccc1)C(=O)Oc1ccc([N+](=O)[O-])cc1",
    "log(1/Km)": 5.37
  },
  {
    "MOLECULE": "CS(=O)(=O)N[C@@H](Cc1ccccc1)C(=O)Oc1cccc([N+](=O)[O-])c1",
    "log(1/Km)": 5.06
  },
  {
    "MOLECULE": "CC(=O)N[C@@H](Cc1ccccc1)C(=O)Oc1ccc([N+](=O)[O-])cc1",
    "log(1/Km)": 4.62
  }
]

Need log(1/Km), item CCC[C@H](NC(C)=O)C(=O)OCCCl
3.1

Thanks! And CCC(=O)NCC(=O)Oc1ccc([N+](=O)[O-])cc1 ?
3.95

Thanks! And COC(=O)[C@H](Cc1ccccc1)NC(=O)c1ccccc1 ?
4.46

Thanks! And COC(=O)[C@H](C)NC(C)=O ?
0.21

Thanks! And CCC[C@H](NC(=O)c1ccccc1)C(=O)OC ?
3.07

Thanks! And COC(=O)[C@H](CC1CCCCC1)NC(C)=O ?
3.72

Thanks! And CCCCC[C@H](NC(C)=O)C(=O)OC ?
2.79

Thanks! And CC(=O)NCC(=O)O[C@H](C)c1ccccc1 ?
3.66

Thanks! And CCOC(=O)[C@@H](NC(C)=O)c1ccccc1 ?
2.48

====

assay: Binding affinity to chymotrypsin (unknown origin) assessed as deacetylation; details: Homo sapiens
Please note: 1.0 applies when log K is -0.6 or greater, and 0.0 applies otherwise.

# count of solved cases: 5
[
  {
    "MOLECULE": "COC(=O)[C@H](Cc1ccccc1)NC(C)=O",
    "LABEL_CLASS": 1.0
  },
  {
    "MOLECULE": "CC[C@H](NC(C)=O)C(=O)OC",
    "LABEL_CLASS": 1.0
  },
  {
    "MOLECULE": "O=C(Oc1ccc([N+](=O)[O-])cc1)c1ccc(Cl)cc1",
    "LABEL_CLASS": 0.0
  },
  {
    "MOLECULE": "CC(C)C[C@H](NC(=O)OCc1ccccc1)C(=O)Oc1ccc([N+](=O)[O-])cc1",
    "LABEL_CLASS": 1.0
  },
  {
    "MOLECULE": "CC(C)(C)C(=O)Oc1ccc([N+](=O)[O-])cc1",
    "LABEL_CLASS": 0.0
  }
]

Okay, now this molecule:
Does the reported log K for O=C(CCc1ccccc1)Oc1ccc([N+](=O)[O-])cc1 fall at or above the -0.6 mark?
0.0

====

assay: Binding affinity to chymotrypsin (unknown origin) assessed as hydrolysis; conditions: Homo sapiens
Each entry below carries its reported logKcat.
Just the number.

Sample answers from the record:
[
  {
    "MOLECULE": "COc1ccc(OC(=O)CNC(=O)c2ccccc2)cc1",
    "logKcat": -0.25
  },
  {
    "MOLECULE": "CC(=O)N[C@@H](Cc1ccccc1)C(=O)Oc1ccc([N+](=O)[O-])cc1",
    "logKcat": 1.89
  },
  {
    "MOLECULE": "COC(=O)[C@H](CC(C)C)NC(C)=O",
    "logKcat": 0.7
  },
  {
    "MOLECULE": "CCCCCC[C@H](NC(C)=O)C(=O)OC",
    "logKcat": 0.79
  },
  {
    "MOLECULE": "CC(=O)N[C@H](C(=O)OCCCl)C(C)C",
    "logKcat": -0.64
  },
  {
    "MOLECULE": "CC(C)COC(=O)CNC(=O)c1ccccc1",
    "logKcat": -0.78
  }
]

# input for lookup
Need logKcat, item COC(=O)CNC(=O)c1c[nH]c2ccccc12
-1.25
